Assign GI50 of drug to each entry below.
Tested on: SN12C
procedure_summary: GI50 of drug in presence of dasatinib; higher = less potent
condition_parameters: treatment: drug + dasatinib (fixed dose, not stated); 5 days
One number for each entry, in nM.

[[record]]
molecule = "CCn1nnc2c(N3CCOCC3)nc(-c3ccc(NC(=O)Nc4ccc(C(=O)N5CCN(C)CC5)cc4)cc3)nc21 [PKI-402] + Cc1nc(Nc2ncc(C(=O)Nc3c(C)cccc3Cl)s2)cc(N2CCN(CCO)CC2)n1 [dasatinib]"
measurement_type = "GI50 of drug"
result_unit = "nM"
assay_result = 41.6


Please report GI50 of drug with SN12C for item O=C(NOCC1CC1)c1ccc(F)c(F)c1Nc1ccc(I)cc1Cl + Cc1nc(Nc2ncc(C(=O)Nc3c(C)cccc3Cl)s2)cc(N2CCN(CCO)CC2)n1 [dasatinib] .
1520

---

Kindly supply the reported AUC of dose-response viability curve values for the records listed here.
Test system: 769-P
procedure_summary: AUC of dose-response viability curve, drug + dasatinib, normalised to DMSO (arbitrary (AUC of normalised viability)); higher = less growth inhibition
condition_parameters: treatment: drug + dasatinib (fixed dose, not stated); 5 days
One number for each entry.

# example entries with known answers
[[record]]
molecule = "O=C(Nc1cccc(Nc2ncc(Br)c(NCCc3cnc[nH]3)n2)c1)N1CCCC1 [BX-912] + Cc1nc(Nc2ncc(C(=O)Nc3c(C)cccc3Cl)s2)cc(N2CCN(CCO)CC2)n1"
assay_result = 2.3

[[record]]
molecule = "Cc1n[nH]c2ccc(-c3cncc(OC[C@@H](N)Cc4ccccc4)c3)cc12 + Cc1nc(Nc2ncc(C(=O)Nc3c(C)cccc3Cl)s2)cc(N2CCN(CCO)CC2)n1"
assay_result = 1.98


Recall and state the measured AUC of dose-response viability curve for CNC(=O)c1cc(Oc2ccc(NC(=O)Nc3ccc(Cl)c(C(F)(F)F)c3)cc2)ccn1.Cc1ccc(S(=O)(=O)O)cc1 [Sorafenib (Nexavar)] + Cc1nc(Nc2ncc(C(=O)Nc3c(C)cccc3Cl)s2)cc(N2CCN(CCO)CC2)n1 .
2.31

---

Tested on: UO-31
procedure_summary: minimum viability across doses, drug + dasatinib, relative to DMSO (fraction); higher = less growth inhibition
condition_parameters: treatment: drug + dasatinib (fixed dose, not stated); 5 days
measurement_type: minimum viability across doses
One number for each entry.

// below: answered molecules
[[record]]
molecule = "Cc1nc(NC(=O)N2CCC[C@H]2C(N)=O)sc1-c1ccnc(C(C)(C)C(F)(F)F)c1 [BYL719] + Cc1nc(Nc2ncc(C(=O)Nc3c(C)cccc3Cl)s2)cc(N2CCN(CCO)CC2)n1"
system_under_test = "UO-31"
assay_result = 0.0931

[[record]]
molecule = "Cl.Cl.Clc1ccc(Nc2nnc(Cc3ccncc3)c3ccccc23)cc1 [Vatalanib dihydrochloride (PTK787)] + Cc1nc(Nc2ncc(C(=O)Nc3c(C)cccc3Cl)s2)cc(N2CCN(CCO)CC2)n1"
system_under_test = "UO-31"
assay_result = 0.834

[[record]]
molecule = "CS(=O)(=O)O.Cc1ccc(NC(=O)c2ccc(CN3CCN(C)CC3)cc2)cc1Nc1nccc(-c2cccnc2)n1 [Imatinib Mesylate] + Cc1nc(Nc2ncc(C(=O)Nc3c(C)cccc3Cl)s2)cc(N2CCN(CCO)CC2)n1"
system_under_test = "UO-31"
assay_result = 0.683


Below are 6 molecules. Give each one its minimum viability across doses.
1. CCN(CCO)CCCOc1ccc2c(Nc3cc(CC(=O)Nc4cccc(F)c4)n[nH]3)ncnc2c1 [Barasertib (AZD1152-HQPA)] + Cc1nc(Nc2ncc(C(=O)Nc3c(C)cccc3Cl)s2)cc(N2CCN(CCO)CC2)n1
2. Cc1csc(-c2nnc(Nc3ccc(Oc4ncccc4-c4ccnc(N)n4)cc3)c3ccccc23)c1 [AMG 900] + Cc1nc(Nc2ncc(C(=O)Nc3c(C)cccc3Cl)s2)cc(N2CCN(CCO)CC2)n1
3. COc1ccc(C2=NC(c3ccc(Cl)cc3)C(c3ccc(Cl)cc3)N2C(=O)N2CCNC(=O)C2)c(OC(C)C)c1 (stereo not given) [Nutlin-3] + Cc1nc(Nc2ncc(C(=O)Nc3c(C)cccc3Cl)s2)cc(N2CCN(CCO)CC2)n1
4. Cc1ccc(F)c(NC(=O)Nc2ccc(-c3cccc4[nH]nc(N)c34)cc2)c1 [Linifanib (ABT-869)] + Cc1nc(Nc2ncc(C(=O)Nc3c(C)cccc3Cl)s2)cc(N2CCN(CCO)CC2)n1
5. O=c1sn(-c2cccc3ccccc23)c(=O)n1Cc1ccccc1 [Tideglusib] + Cc1nc(Nc2ncc(C(=O)Nc3c(C)cccc3Cl)s2)cc(N2CCN(CCO)CC2)n1
6. CNC(=O)c1cc(Oc2ccc(NC(=O)Nc3cc(C(C)(C)C)nn3-c3ccc4ncccc4c3)c(F)c2)ccn1 [DCC-2036 (Rebastinib)] + Cc1nc(Nc2ncc(C(=O)Nc3c(C)cccc3Cl)s2)cc(N2CCN(CCO)CC2)n1

0.842
0.604
0.583
0.729
1.03
0.00958

Recall the reported minimum viability across doses of COc1cc2ncnc(Nc3cccc(Cl)c3)c2cc1OC [AG-1478 (Tyrphostin AG-1478)] + Cc1nc(Nc2ncc(C(=O)Nc3c(C)cccc3Cl)s2)cc(N2CCN(CCO)CC2)n1 on UO-31 and write it down.
0.586

---

Tested on: A498
procedure_summary: minimum viability across doses, drug alone, relative to DMSO (fraction); higher = less growth inhibition
condition_parameters: treatment: drug alone; 5 days
measurement_type: minimum viability across doses
Give bare numbers.

Worked set:
[[record]]
compound = "COc1cc2ncnc(Nc3cccc(Cl)c3)c2cc1OC"
system_under_test = "A498"
assay_result = 1.01

[[record]]
compound = "Cc1c(CN2CCN(C(=O)[C@H](C)O)CC2)sc2c(N3CCOCC3)nc(-c3cnc(N)nc3)nc12 [GDC-0980 (RG7422)]"
system_under_test = "A498"
assay_result = 0.215


Give me minimum viability across doses for each of these compounds, listed below.
1. Cc1cc(C)c(/C=C2\C(=O)Nc3ccccc32)[nH]1 [Semaxanib (SU5416)]
2. Cn1cc(-c2ccc3nnc(C(F)(F)c4ccc5ncccc5c4)n3n2)cn1
3. COc1cc(Nc2ncc3c(n2)-c2ccc(Cl)cc2C(c2c(F)cccc2OC)=NC3)ccc1C(=O)O
4. C[C@@H](Oc1cc(-n2cnc3ccc(CN4CCN(C)CC4)cc32)sc1C(N)=O)c1ccccc1C(F)(F)F

0.97
1.05
0.569
0.599

Return reported minimum viability across doses values for all items listed beneath this line.
1. O=C1NC(=O)/C(=C/c2ccc3c(c2)OC(F)(F)O3)S1
2. CCOc1cc2ncc(C#N)c(Nc3ccc(OCc4ccccn4)c(Cl)c3)c2cc1NC(=O)/C=C/CN(C)C
3. O=C(Nc1cc(C(F)(F)F)cc(C(F)(F)F)c1)c1cc(Cl)ccc1O
4. CC(C)(C)c1cc(NC(=O)Nc2ccc(-c3cn4c(n3)sc3cc(OCCN5CCOCC5)ccc34)cc2)no1
5. CNC(=O)c1ccccc1Sc1ccc2c(/C=C/c3ccccn3)n[nH]c2c1
6. CC(C)(C)Cn1c(N)nc2ccc(-c3[nH]c(C(C)(C)C)nc3-c3ccc(F)cc3)nc21.CS(=O)(=O)O.CS(=O)(=O)O
7. Cc1ccc(S(=O)(=O)Nc2nc3ccccc3nc2Nc2ccc3nsnc3c2)cc1

0.83
0.894
0.0128
1.07
0.779
0.972
0.933

For each of the items listed, what is its minimum viability across doses?
1. COc1cc(OC)c(/C=C/S(=O)(=O)Cc2ccc(OC)c(NCC(=O)[O][Na])c2)c(OC)c1
2. CC1CCN(C(=O)CC#N)C[C@@H]1N(C)c1ncnc2[nH]ccc12.O=C(O)CC(O)(CC(=O)O)C(=O)O (stereo in doubt)

1. 0.154
2. 0.817

---

Tested on: 786-O
procedure_summary: minimum viability across doses, drug + dasatinib, relative to DMSO (fraction); higher = less growth inhibition
condition_parameters: treatment: drug + dasatinib (fixed dose, not stated); 5 days
Answer each item with its documented minimum viability across doses.
Numbers only.

Example molecules with recorded minimum viability across doses:
[[record]]
molecule = "CCc1cc2c(cc1N1CCC(N3CCOCC3)CC1)C(C)(C)c1[nH]c3cc(C#N)ccc3c1C2=O + Cc1nc(Nc2ncc(C(=O)Nc3c(C)cccc3Cl)s2)cc(N2CCN(CCO)CC2)n1"
assay_result = 0.614

[[record]]
molecule = "CN1CCN(CCOc2cc(OC3CCOCC3)c3c(Nc4c(Cl)ccc5c4OCO5)ncnc3c2)CC1 [Saracatinib (AZD0530)] + Cc1nc(Nc2ncc(C(=O)Nc3c(C)cccc3Cl)s2)cc(N2CCN(CCO)CC2)n1"
assay_result = 0.333

[[record]]
molecule = "COc1ccc2c(Oc3ccc(NC(=O)c4c(C)n(CC(C)(C)O)n(-c5ccccc5)c4=O)nc3)ccnc2c1 [AMG458] + Cc1nc(Nc2ncc(C(=O)Nc3c(C)cccc3Cl)s2)cc(N2CCN(CCO)CC2)n1"
assay_result = 0.195


Look up minimum viability across doses of C#Cc1cccc(Nc2ncnc3cc(OCCOC)c(OCCOC)cc23)c1.Cl [Erlotinib HCl] + Cc1nc(Nc2ncc(C(=O)Nc3c(C)cccc3Cl)s2)cc(N2CCN(CCO)CC2)n1 and report it.
0.469
